Target: Single-stranded DNA-binding protein (Escherichia coli (strain K12)) (UniProt P0AGE0)
Assay: E. coli SSB displacement from DNA, counter-screen for HCV NS3 helicase inhibitor project, biochemical, fluorescence polarization, NIH Clinical Collection (AID 743271)
Settings: hits give high values, concentration not given here
Non-standard residues stand in square brackets, D forms with d. Residues, ends and D or L forms follow the SMILES beside them. pGlu = O=C1CC[C@@H](C(=O)O)N1; Thz = O=C(O)[C@@H]1CSCN1
Measured inhibition accompanies every entry in the list below.

COMPOUND	SYSTEM_UNDER_TEST	inhibition, %
CN1CC(=O)N2[C@H](c3ccc4c(c3)OCO4)c3[nH]c4ccccc4c3C[C@@H]2C1=O	Single-stranded DNA-binding protein (Escherichia coli (strain K12)) (UniProt P0AGE0)	-0.1
C/C(=C\C(=O)OCCCCCCCCC(=O)O)C[C@@H]1OC[C@H](C[C@@H]2O[C@H]2[C@@H](C)[C@H](C)O)[C@@H](O)[C@H]1O	Single-stranded DNA-binding protein (Escherichia coli (strain K12)) (UniProt P0AGE0)	-5.05
CC(C)NCC(O)c1ccc(NS(C)(=O)=O)cc1 (centres undefined)	Single-stranded DNA-binding protein (Escherichia coli (strain K12)) (UniProt P0AGE0)	-3.95
NC(=O)c1ncn(C2OC(CO)C(O)C2O)n1 (centres undefined)	Single-stranded DNA-binding protein (Escherichia coli (strain K12)) (UniProt P0AGE0)	5.62
CC(CCCCC(=O)Nc1ccc(C(F)(F)F)cc1)NCCc1cnc[nH]1 (centres undefined)	Single-stranded DNA-binding protein (Escherichia coli (strain K12)) (UniProt P0AGE0)	-4.33
C[C@]12CC3CC(N)(C1)C[C@@](C)(C3)C2	Single-stranded DNA-binding protein (Escherichia coli (strain K12)) (UniProt P0AGE0)	-0.87
O=C1CC[C@@H](C(=O)N2CSC[C@H]2C(=O)O)N1 ([pGlu]-[Thz]-OH)	Single-stranded DNA-binding protein (Escherichia coli (strain K12)) (UniProt P0AGE0)	3.75
C[C@H]1O[C@H](O[C@H]2[C@H](O)[C@@H](O)[C@@H](O[C@H]3[C@H](O)[C@@H](O)C(O)O[C@@H]3CO)O[C@@H]2CO)[C@H](O)[C@@H](O)[C@@H]1N[C@H]1C=C(CO)[C@@H](O)[C@H](O)[C@H]1O (some centres undefined)	Single-stranded DNA-binding protein (Escherichia coli (strain K12)) (UniProt P0AGE0)	0.67
CC(C)CC(NC(=O)C(COC(C)(C)C)NC(=O)C(Cc1ccc(O)cc1)NC(=O)C(CO)NC(=O)C(Cc1c[nH]c2ccccc12)NC(=O)C(Cc1cnc[nH]1)NC(=O)C1CCC(=O)N1)C(=O)N[C@@H](CCCN=C(N)N)C(=O)N1CCCC1C(=O)NNC(N)=O (some centres undefined)	Single-stranded DNA-binding protein (Escherichia coli (strain K12)) (UniProt P0AGE0)	7.48
O=c1[nH]c(=O)n(C2CCCO2)cc1F (centres undefined)	Single-stranded DNA-binding protein (Escherichia coli (strain K12)) (UniProt P0AGE0)	5.29
COc1cc(C)c(/C=C/C(C)=C/C=C/C(C)=C/C(=O)O)c(C)c1C	Single-stranded DNA-binding protein (Escherichia coli (strain K12)) (UniProt P0AGE0)	4.1
O=C(c1ccc(OCCN2CCCCC2)cc1)c1c(-c2ccc(O)cc2)sc2cc(O)ccc12	Single-stranded DNA-binding protein (Escherichia coli (strain K12)) (UniProt P0AGE0)	4.1
O=c1c(O[C@@H]2O[C@H](CO)[C@H](O)[C@H](O)[C@H]2O)c(-c2ccc(O)c(O)c2)oc2cc(O)cc(O)c12	Single-stranded DNA-binding protein (Escherichia coli (strain K12)) (UniProt P0AGE0)	15.3
CCC(C)n1ncn(-c2ccc(N3CCN(c4ccc(OCC5COC(Cn6cncn6)(c6ccc(Cl)cc6Cl)O5)cc4)CC3)cc2)c1=O (centres undefined)	Single-stranded DNA-binding protein (Escherichia coli (strain K12)) (UniProt P0AGE0)	-1.64
OC[C@H]1O[C@@H](n2cnc3c(NC4CCCC4)nc(Cl)nc32)[C@@H](O)C1O (some centres undefined)	Single-stranded DNA-binding protein (Escherichia coli (strain K12)) (UniProt P0AGE0)	-1.97
CC(=O)O[C@@]12CO[C@@H]1C[C@H](O)[C@@]1(C)C(=O)[C@H](O)C3=C(C)[C@@H](OC(=O)[C@H](O)[C@@H](NC(=O)OC(C)(C)C)c4ccccc4)C[C@](O)([C@@H](OC(=O)c4ccccc4)[C@H]21)C3(C)C	Single-stranded DNA-binding protein (Escherichia coli (strain K12)) (UniProt P0AGE0)	9.14
CC(C)(C)NC(=O)[C@@H]1C[C@@H]2CCCC[C@@H]2CN1C[C@@H](O)[C@H](Cc1ccccc1)NC(=O)[C@H](CC(N)=O)NC(=O)c1ccc2ccccc2n1	Single-stranded DNA-binding protein (Escherichia coli (strain K12)) (UniProt P0AGE0)	12.2
C=CCc1ccc(O)c(-c2ccc(O)c(CC=C)c2)c1	Single-stranded DNA-binding protein (Escherichia coli (strain K12)) (UniProt P0AGE0)	5.29
CC(=O)[C@@]1(O)CC[C@H]2[C@@H]3C[C@H](C)C4=CC(=O)CC[C@]4(C)[C@H]3CC[C@@]21C	Single-stranded DNA-binding protein (Escherichia coli (strain K12)) (UniProt P0AGE0)	-0.39
CN1CCN(c2nc3cc(C(F)(F)F)ccc3n3cccc23)CC1	Single-stranded DNA-binding protein (Escherichia coli (strain K12)) (UniProt P0AGE0)	1.97
Fc1ccc(C2CCNCC2COc2ccc3c(c2)OCO3)cc1 (centres undefined)	Single-stranded DNA-binding protein (Escherichia coli (strain K12)) (UniProt P0AGE0)	3.34
CN1[C@@H](CC(=O)c2ccccc2)CCC[C@H]1C[C@H](O)c1ccccc1	Single-stranded DNA-binding protein (Escherichia coli (strain K12)) (UniProt P0AGE0)	-0.1
COc1cc([C@@H]2c3cc4c(cc3[C@@H](O[C@@H]3O[C@@H]5CO[C@@H](C)O[C@H]5[C@H](O)[C@H]3O)[C@H]3COC(=O)[C@H]23)OCO4)cc(OC)c1O	Single-stranded DNA-binding protein (Escherichia coli (strain K12)) (UniProt P0AGE0)	2.76
CCCCC[C@H](O)/C=C/[C@H]1[C@H](O)CC(=O)[C@@H]1CCCCCCC(=O)O	Single-stranded DNA-binding protein (Escherichia coli (strain K12)) (UniProt P0AGE0)	-0.39
